Hello, the source for this data is PubChem BioAssay AID430, in case you need it.

- Test method notes: cytotoxicity in HPDE-C7 cells, cell-based, fluorescence, HTS (AID 430);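 further: cells exposed to compound for 48 hours before viability readout; 0% = vehicle and 100% = reference cytotoxic drug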
- Run conditions: HPDE-C7 pancreatic duct cells viability, at 10 µM, stronger effect = higher value
Among all 63,000 compounds or so, about 1,100 (1.7%) were called active. The sample holds actives, similar compounds and a random draw of the others, so the mix is not that of the screen. Results with a measured potency or affinity are listed apart.
Kindly state cytotoxicity for each of the entries shown.
Give just the numeric value; % need not be written.

### Prompt Fill in the blank: the reported cytotoxicity of O=C1Nc2ccccc2C12OCCCCO2 is ____.
### Response -24.6

### Prompt Also, Cc1nn(C)cc1C1C2=C(CC(C)(C)CC2=O)OC2=C1C(=O)CC(C)(C)C2 please.
### Response -12.3

### Prompt Can you handle O=C(Nc1ncccc1Cl)c1cccc(F)c1 next?
### Response 62.6

### Prompt Same again, this time with O=C(Nc1cccnc1)c1ccc(COc2ccccc2Br)o1
### Response 23.7

### Prompt Now the same for COC(=O)c1ccc(Oc2c(C)oc3c(CN4CCN(C)CC4)c(O)ccc3c2=O)cc1
### Response -9.6

### Prompt Could you do the same for COc1cc(NC(=O)c2ccc(COc3ccccc3Br)o2)cc(OC)c1OC , please?
### Response 56.6

### Prompt Moving on to the next compound: CCCCCn1c(CN2CCN(c3cccc(Cl)c3)CC2)nc2c1c(=O)[nH]c(=O)n2C
### Response 43.9

### Prompt Moving on to the next compound: Cc1ccc(-n2ncc(C(=O)N3CCc4ccccc4C3)c2NC(=O)c2ccco2)cc1C
### Response 71.2

### Prompt Now this one: Cc1cc(OCCCCCNCCO)ccc1Cl
### Response 18.7

### Prompt Entry to check: CC(C)C(=O)Nc1ccc(NC(=O)c2cccc(F)c2)cn1
### Response -7.5

### Prompt Entry CCC(C)(C)n1nnnc1C(C(C)C)N1CCC(C(N)=O)CC1 (stereo unspecified) please
### Response 5.6

### Prompt Would you mind doing O=C(C1CC1)N1CCc2cc(Br)cc(S(=O)(=O)NCCN3CCOCC3)c21 as well?
### Response -14.7

### Prompt Further, for CCCCN(C(=O)NC(=O)Nc1c(C)cc(C)cc1C)S(C)(=O)=O ?
### Response 4.6

### Prompt Here is the next compound: CSc1ncc(Cl)c(C(=O)Nc2ccc(S(=O)(=O)N3CCOCC3)cc2)n1
### Response 7.9

### Prompt Quick one: CCOC(=O)c1c(C)n(C)c2cc(Br)c(C(=O)OC)cc12
### Response 9.9

### Prompt Likewise for CC(C)Cn1c(CN2CCN(c3ccccc3F)CC2)nc2c1c(=O)[nH]c(=O)n2C ?
### Response -0.6

* * *

- Test method notes: cytotoxicity in HPDE-C7 cells, cell-based, fluorescence, HTS (AID 430);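 further: cells exposed to compound for 48 hours before viability readout; 0% = vehicle and 100% = reference cytotoxic drug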
- Run conditions: HPDE-C7 pancreatic duct cells viability, at 10 µM, stronger effect = higher value
About 1,100 (1.7%) of roughly 63,000 compounds were called active. The sample holds actives, similar compounds and a random draw of the others, so the mix is not that of the screen. Results with a measured potency or affinity are listed apart.
Property label: cytotoxicity (%)
Give the number; % is assumed, so skip it.

### Prompt Given the compound N#C/C(=C\c1ccco1)Sc1nc2ccccc2s1 , what is its reported cytotoxicity?
### Response 54.9

### Prompt Can you handle CCc1ccc2c(c1)C(C)=CC(C)(C)N2 next?
### Response 3.5

### Prompt Would you mind doing COC(=O)c1ccc(OC(=O)c2ccco2)cc1 as well?
### Response -14.5

### Prompt // query: CCOc1cccc(C(=O)Nc2nnc(-c3ccco3)s2)c1
### Response 2.3

### Prompt Cc1csc(NC(=O)c2c(O)c3cccc4c3n(c2=O)CCC4)n1 , same question.
### Response -11.1

### Prompt Let us now turn to Cc1cc(C)c(C#N)c(SCS(=O)Cc2ccccc2)n1 (stereo not drawn)
### Response -16.4

### Prompt Would you mind doing O=C(CCN1CCc2ccccc2C1)Nc1cccc(F)c1 as well?
### Response 3.9

### Prompt How about this compound: Cc1cc(C)c(C#N)c(SCS(=O)Cc2ccc(Cl)cc2)n1 (stereo not drawn)
### Response 50.3

### Prompt Cool, now CCOc1ccc2[nH]c3c(N4CCN(c5ccccn5)CC4)ncnc3c2c1
### Response 62.5

### Prompt Query O=C(CSc1nc(O)cc(=O)[nH]1)N1CCCc2ccccc21 next
### Response 2.5

### Prompt Also check COc1ccccc1NC(=O)c1ccc(-c2ccccc2F)o1
### Response -0.2

### Prompt Request: COc1ccc(S(=O)(=O)C(C#N)c2nc3ccccc3nc2N2CCCCC2)cc1 (stereo not drawn)
### Response -10.2

### Prompt Could you do the same for COC(=O)C1=C(C)NC(C)=C(C(=O)OC)C1c1ccc(OC(=O)c2ccco2)cc1 , please?
### Response -0.4

### Prompt And Cc1ccc2c(c1)[nH]c1c(N3CCN(Cc4ccccc4)CC3)ncnc12 ?
### Response 82.2

### Prompt Also need Cc1ccc2[nH]c3c(N4CCOCC4)ncnc3c2c1 , thanks.
### Response 5.1

### Prompt Query COc1ccccc1N1CC(O)=C(c2nc3ccccc3c(=O)[nH]2)C1=N next
### Response 26.8

### Prompt Now consider COc1cccc(N2CC(O)=C(c3nc4ccccc4c(=O)[nH]3)C2=N)c1 and answer again.
### Response 54.2

### Prompt Moving on to the next compound: Cc1cc(C)c(C#N)c(SCS(=O)c2ccc(C(C)(C)C)cc2)n1 (stereo not drawn)
### Response -4.8

### Prompt Now give it for CCSc1nc2c(c(=O)[nH]1)C(c1cccnc1)C(C(=O)OC)=C(C)N2 (stereo not drawn) too.
### Response -19

### Prompt Also need C=C(C)c1cccc(C(C)(C)NC(=O)N2CCOCC2)c1 , thanks.
### Response 7.9

### Prompt Also check CCOC(=O)N1CCN(c2ncnc3c2[nH]c2ccc(OC)cc23)CC1
### Response -5

### Prompt Same question for COc1ccc(S(=O)(=O)C(C#N)c2nc3ccccc3nc2N2CCCC(C)C2)cc1 (stereo not drawn) please.
### Response 61.7

### Prompt Entry to check: Cc1cc(NC(=O)c2c(-c3ccccc3Cl)noc2C)no1
### Response -12.4
